Property: aptazyme ON/OFF ratio; scope: individual variants
B1: Pistol ribozyme (parent)
chain: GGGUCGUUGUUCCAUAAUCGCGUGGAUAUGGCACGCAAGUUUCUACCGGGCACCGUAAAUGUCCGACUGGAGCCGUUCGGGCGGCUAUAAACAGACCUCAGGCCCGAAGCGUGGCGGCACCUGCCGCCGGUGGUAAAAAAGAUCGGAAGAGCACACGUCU

# Variants of: B1
# assayName: aptazyme ON/OFF ratio, guanine; higher = stronger switching; co-transcriptional cleavage with and without guanine
measure: aptazyme ON/OFF ratio

mutant	measure	valueReported
U7G U8G U10A C12U C13U	aptazyme ON/OFF ratio	1.09
U7C U8G U10C C12U	aptazyme ON/OFF ratio	1.38
U7A U8G G9C U10A U11G C12A C13U	aptazyme ON/OFF ratio	1.16
U8G G9U U11G C12G C13U	aptazyme ON/OFF ratio	1.22
U8A U10C U11A C12G	aptazyme ON/OFF ratio	1.19
U7C U8C G9U U11C C12U	aptazyme ON/OFF ratio	1.04
U7C U8C U10A U11A C12U C13A	aptazyme ON/OFF ratio	1.13
U7A U8G U10C C12G C13G	aptazyme ON/OFF ratio	1.05
G9A U10A C12G C13A	aptazyme ON/OFF ratio	1.47
U7A U8C U10C C13A	aptazyme ON/OFF ratio	1.08
U7C U11A C13U	aptazyme ON/OFF ratio	1.23
U7G U8G G9U C12G C13A	aptazyme ON/OFF ratio	1.3
